Biological target: KDR (phospho-KDR, VEGF165-stimulated HUVEC cells) (Homo sapiens (Human))
Sequence (P35968 20-1356): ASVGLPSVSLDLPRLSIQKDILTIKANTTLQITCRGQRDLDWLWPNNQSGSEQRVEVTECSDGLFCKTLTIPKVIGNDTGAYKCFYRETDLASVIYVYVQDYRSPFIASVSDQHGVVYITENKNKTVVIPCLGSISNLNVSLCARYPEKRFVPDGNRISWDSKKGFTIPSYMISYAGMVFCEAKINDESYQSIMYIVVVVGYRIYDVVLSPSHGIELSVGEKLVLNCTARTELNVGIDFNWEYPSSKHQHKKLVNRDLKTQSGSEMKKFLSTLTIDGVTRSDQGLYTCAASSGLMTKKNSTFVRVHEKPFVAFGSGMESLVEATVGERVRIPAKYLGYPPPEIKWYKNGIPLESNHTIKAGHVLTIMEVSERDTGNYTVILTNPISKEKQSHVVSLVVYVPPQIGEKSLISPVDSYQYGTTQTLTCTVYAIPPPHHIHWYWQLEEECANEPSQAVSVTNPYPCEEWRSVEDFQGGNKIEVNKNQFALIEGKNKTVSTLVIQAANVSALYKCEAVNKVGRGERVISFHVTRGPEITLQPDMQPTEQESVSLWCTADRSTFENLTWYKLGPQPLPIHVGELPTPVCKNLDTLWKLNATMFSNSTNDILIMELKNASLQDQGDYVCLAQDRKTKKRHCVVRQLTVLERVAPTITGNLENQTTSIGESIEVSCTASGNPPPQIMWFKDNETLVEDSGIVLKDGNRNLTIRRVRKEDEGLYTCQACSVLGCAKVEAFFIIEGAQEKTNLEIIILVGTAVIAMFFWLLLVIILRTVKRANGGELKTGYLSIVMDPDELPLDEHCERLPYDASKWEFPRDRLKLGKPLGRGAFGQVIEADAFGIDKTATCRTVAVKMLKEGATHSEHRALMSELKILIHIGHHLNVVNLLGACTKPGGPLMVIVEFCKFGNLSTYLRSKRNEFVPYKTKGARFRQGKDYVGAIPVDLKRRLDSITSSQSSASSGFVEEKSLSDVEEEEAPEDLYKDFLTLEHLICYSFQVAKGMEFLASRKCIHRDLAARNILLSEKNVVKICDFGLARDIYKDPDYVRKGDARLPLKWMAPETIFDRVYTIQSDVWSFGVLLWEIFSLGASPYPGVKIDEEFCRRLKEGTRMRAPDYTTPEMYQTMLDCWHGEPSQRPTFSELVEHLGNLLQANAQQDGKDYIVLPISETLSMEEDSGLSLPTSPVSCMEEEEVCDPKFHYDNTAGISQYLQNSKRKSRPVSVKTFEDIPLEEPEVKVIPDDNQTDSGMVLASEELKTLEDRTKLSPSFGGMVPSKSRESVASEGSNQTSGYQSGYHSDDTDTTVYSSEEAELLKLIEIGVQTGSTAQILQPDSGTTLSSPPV
Experiment: KDR autophosphorylation ELISA in HUVEC cells (Example G)
Type: cell-based
Conditions: cellular activity; KDR autophosphorylation ELISA in HUVEC cells
Experimental: Human umbilical vein endothelial cells or HUVEC (Lonza #C2519A) were seeded at 2×10^4 cells/well onto 96-well plates (Corning #3904), in EGM-2 growth medium (Lonza #CC-3162) containing 1% Penicillin Streptomycin (Thermo Fisher #15140-122). […] IC50 values were calculated by nonlinear regression analysis using a 4-parameter logistic curve fit in ActivityBase XE (IDBS).
pIC50: −log10 of the molar value.
REPORTED_PROPERTY: pIC50

Consider the worked cases shown below.
Query string: Could you share which pIC50 value was measured for COc1cc2nccc(Oc3ccc(NC(=O)c4nn(C(C)C)c(C)c(-c5ccc(F)cc5)c4=O)cc3F)c2nc1OC [Compound 364] ?
Result string: > 7.00

Query string: Could you share which pIC50 value was measured for COc1cc2nccc(Oc3ccc(NC(=O)c4cn(C(C)C)c(C)c(-c5ccc(Cl)c(Cl)c5)c4=O)cc3F)c2cc1OC [Compound 23] ?
Result string: < 6.52

Query string: Could you share which pIC50 value was measured for COc1cnc2c(Oc3ccc(NC(=O)c4c5n(c(C)c(-c6ccc(F)cc6C)c4=O)CCOC5)cc3F)ccnc2c1 [Compound 784] ?
Result string: < 6.52

Query string: Could you share which pIC50 value was measured for COc1cnc2c(Oc3ccc(NC(=O)c4cn(CC(F)F)c(C)c(-c5ccc(F)cc5C)c4=O)cc3F)ccnc2c1 [Compound 723] ?
Result string: < 6.52

***
Query string: Could you share which pIC50 value was measured for COc1cc2nccc(Oc3ccc(NC(=O)c4cnc(C5CC5)c(-c5ccc(F)cc5)c4O)cc3F)c2nc1OC [Compound 662] ?
Result string: 6.52 to 7.00

Query string: Could you share which pIC50 value was measured for C=C(C)c1cnc2c(Oc3ccc(NC(=O)c4cnc(C)c(-c5ccc(F)cc5C)c4O)cc3F)ccnc2c1 [Compound 450] ?
Result string: > 7.00

Query string: Could you share which pIC50 value was measured for CNC(=O)c1cc2nccc(Oc3cc(F)c(NC(=O)c4c(C)nc(C)c(-c5ccc(F)cc5C)c4O)cc3F)c2cc1C [Compound 752] ?
Result string: > 7.00
